pEC50 overview
- Tested on: SCD1
- RUN_DESCRIPTION: Measurement of SCD1 expression in SZ95-SCD1-HiBit cells (HiBiT assay)
- Format: cell-based
- SETTINGS: Homo sapiens; SZ95-SCD1-HiBit cells, 48 h, SCD1 protein production, luminescence; initial dilution 1:3 in DMSO; read-out: HiBit EC50
pEC50: −log10 of the molar value.
METRIC: pEC50

{"COMPOUND": "CC(C)CS(=O)(=O)c1ccccc1Oc1ccc(-c2noc(CN3C(=O)N(CCN4CCOCC4)C4(CCNCC4)C3=O)n2)cc1C(F)(F)F", "METRIC": "pEC50", "RECORDED_RESULT": 8.48}
{"COMPOUND": "O=C(O)Cc1cccc(OCCCN(Cc2cccc(C(F)(F)F)c2Cl)CC(c2ccccc2)c2ccccc2)c1 [Reference Compound, reference compound]", "METRIC": "pEC50", "RECORDED_RESULT": 7.18}
{"COMPOUND": "CCCC1(C)C(=O)N(Cc2nc(-c3ccc(Oc4ccccc4S(=O)(=O)CC(C)C)c(C(F)(F)F)c3)no2)C(=O)N1CCN1CCOCC1 (stereo not drawn)", "METRIC": "pEC50", "RECORDED_RESULT": 8.82}

---

- System: SCD1
- RUN_DESCRIPTION: Measurement of SCD1 expression in SZ95-SCD1-HiBit cells (HiBiT assay)
- Assay type: cell-based
- SETTINGS: Homo sapiens; SZ95-SCD1-HiBit cells, 48 h, SCD1 protein production, luminescence; initial dilution 1:3 in DMSO; read-out: HiBit EC50
pEC50: −log10 of the molar value.
Readings of pEC50 for the listed compounds
METRIC: pEC50

{"MOLECULE_SMILES": "COCCN(CCOC)CCS(=O)(=O)c1ccccc1Oc1ccc(-c2noc(CN3C(=O)N(CCN4CCOCC4)C(C)(C)C3=O)n2)cc1C(F)(F)F", "RECORDED_RESULT": 8.04}
{"MOLECULE_SMILES": "COCCS(=O)(=O)c1ccccc1Oc1ccc(-c2noc(CN3C(=O)N(CCN4CCOCC4)C(C)(C)C3=O)n2)cc1C(F)(F)F", "RECORDED_RESULT": 9.55}
{"MOLECULE_SMILES": "CC1(C)C(=O)N(Cc2nc(-c3ccc(Oc4cnccc4C(F)(F)F)c(C(F)(F)F)c3)no2)C(=O)N1CCN1CCOCC1", "RECORDED_RESULT": 7.82}
{"MOLECULE_SMILES": "CC(C)CS(=O)(=O)c1ccccc1Oc1ccc(-c2noc(CN3C(=O)N(CCN4CCOCC4)C4(CCN(C(=O)CC5CC5)CC4)C3=O)n2)cc1C(F)(F)F", "RECORDED_RESULT": 9.16}
{"MOLECULE_SMILES": "CC(C)CS(=O)(=O)c1ccccc1Oc1ccc(-c2noc(CN3C(=O)N(CCN4CCOCC4)C4(CCN(C5CCN(C)CC5)CC4)C3=O)n2)cc1C(F)(F)F", "RECORDED_RESULT": 8.74}
{"MOLECULE_SMILES": "CC(C)CS(=O)(=O)c1ccccc1Oc1ccc(-c2noc(CN3C(=O)N(CCN4CCOCC4)C4(CCN(C(=O)c5cncnc5)CC4)C3=O)n2)cc1C(F)(F)F", "RECORDED_RESULT": 9.10}
{"MOLECULE_SMILES": "CC(C)CS(=O)(=O)c1ccccc1Oc1ccc(-c2noc(CN3C(=O)N(CCN4CCOCC4)C4(CCN(Cc5cccnn5)CC4)C3=O)n2)cc1C(F)(F)F", "RECORDED_RESULT": 8.79}
{"MOLECULE_SMILES": "CC(C)N(C)S(=O)(=O)c1ccccc1Oc1ccc(-c2noc(CN3C(=O)N(CCN4CCOCC4)C4(CCN(C5CCC5)CC4)C3=O)n2)cc1C(F)(F)F", "RECORDED_RESULT": 10.24}
{"MOLECULE_SMILES": "CC(COc1ccc(-c2noc(CN3C(=O)N(CCC4CCOCC4)C4(CCN(C(=O)c5cncnc5)CC4)C3=O)n2)cc1C(F)(F)F)(C(F)(F)F)C(F)(F)F", "RECORDED_RESULT": 9.36}
{"MOLECULE_SMILES": "CCN1CCC2(CC1)C(=O)N(Cc1nc(-c3ccc(Oc4ccccc4S(=O)(=O)CC(C)C)c(C(F)(F)F)c3)no1)C(=O)N2CCN1CCOCC1", "RECORDED_RESULT": 10.30}
{"MOLECULE_SMILES": "CC(C)CS(=O)(=O)c1ccccc1Oc1ccc(-c2noc(CN3C(=O)N(CCN4CCOCC4)C4(CCN(C(=O)CCN(C)C)CC4)C3=O)n2)cc1C(F)(F)F", "RECORDED_RESULT": 8.62}
{"MOLECULE_SMILES": "CC(C)CS(=O)(=O)c1ccccc1Oc1ccc(-c2noc(CN3C(=O)N(Cc4ccccn4)C(C)(C)C3=O)n2)cc1C(F)(F)F", "RECORDED_RESULT": 7.91}
